This collection of values is drawn from patent US5393761A.

System under test: serotonin S2 (5-HT2) receptors in rat cortex (Rattus norvegicus)
Structures can show the parent of a compound that is named as a salt.
Would you kindly list IC50 for each of these compounds?

// query Return reported IC50. Input compound: CN1CCN(CCN2CCC(n3cc(-c4ccc(F)cc4)c4cc(Cl)ccc43)CC2)C1=O [Compound 4f]
// result 1.4 nM

// query Return reported IC50. Input compound: Cc1ccc2c(c1)C(c1ccc(F)cc1)CN2C1CCN(CCN2CCNC2=O)CC1 (centres unmarked) [Compound 18b]
// result 4.3 nM

// query Return reported IC50. Input compound: O=C1NCCN1CCN1CCC(n2nc(-c3ccc(F)cc3)c3ccc(Cl)cc32)CC1 [Compound 4t]
// result 38 nM

// query Return reported IC50. Input compound: O=C1NCCN1CCN1CCC(n2cc(-c3ccc(F)cc3)c3cc(F)ccc32)CC1 [Compound 4m]
// result 3.2 nM

// query Return reported IC50. Input compound: Cc1c(-c2ccccc2)c2ccccc2n1C1CCN(CCN2CCNC2=O)CC1 [Compound 7c]
// result 7.8 nM

// query Return reported IC50. Input compound: O=C1NCCN1CCN1CC=C(n2cc(-c3ccc(F)cc3)c3cc(C(F)(F)F)ccc32)CC1 [Compound 6f]
// result 3.6 nM

// query Return reported IC50. Input compound: Cc1ccc2c(c1)c(-c1ccc(F)cc1)cn2C1CCN(C(C)C)CC1 [Compound 4s]
// result 12 nM

// query Return reported IC50. Input compound: Cc1ccc2c(c1)c(-c1ccc(F)cc1)cn2C1CCN(CCN2CCN(C)C2=O)CC1 [Compound 4i]
// result 1.4 nM

// query Return reported IC50. Input compound: O=C1NCCN1CCN1CCC(n2cc(-c3ccc(F)cc3)c3ccccc32)CC1 [Compound 4k]
// result 3.1 nM

// query Return reported IC50. Input compound: Cc1ccc2c(c1)c(-c1ccc(F)cc1)cn2C1=CCN(C)CC1 [Compound 6d]
// result 4.4 nM

// query Return reported IC50. Input compound: Cc1ccc2c(c1)c(-c1ccc(F)cc1)cn2C1CCN(CCN2CCCC2=O)CC1 [Compound 4j, oxalate]
// result 4.5 nM

// query Return reported IC50. Input compound: Cc1c(-c2ccccc2)c2cc(Cl)ccc2n1C1CCN(C)CC1 [Compound 9b]
// result 17 nM

// query Return reported IC50. Input compound: Cc1ccc2c(c1)c(-c1ccc(F)cc1)c(Cl)n2C1CCN(CCN2CCN(C(C)C)C2=O)CC1 [Compound 27a]
// result 10 nM

// query Return reported IC50. Input compound: Cc1ccc2c(c1)c(-c1ccc(F)cc1)c(C)n2C1CCN(C)CC1 [Compound 9a]
// result 5.3 nM

// query Return reported IC50. Input compound: Cc1ccc2c(c1)c(-c1ccc(F)cc1)cn2C1=CCN(CCN2CCNC2=O)CC1 [Compound 6c]
// result 1.4 nM

// query Return reported IC50. Input compound: CNC(=O)N(C)CCN1CCC(n2cc(-c3ccc(F)cc3)c3cc(C)ccc32)CC1 [Compound 15a, hydrochloride]
// result 1.8 nM

// query Return reported IC50. Input compound: O=C1NCCN1CCN1CCC(N2CC(c3ccc(F)cc3)c3cc(F)ccc32)CC1 (centres unmarked) [Compound 4r]
// result 3.4 nM

* * *

System under test: serotonin S2 (5-HT2) receptors in rat cortex (Rattus norvegicus, UniProt P14842)
Sequence (P14842 whole entry): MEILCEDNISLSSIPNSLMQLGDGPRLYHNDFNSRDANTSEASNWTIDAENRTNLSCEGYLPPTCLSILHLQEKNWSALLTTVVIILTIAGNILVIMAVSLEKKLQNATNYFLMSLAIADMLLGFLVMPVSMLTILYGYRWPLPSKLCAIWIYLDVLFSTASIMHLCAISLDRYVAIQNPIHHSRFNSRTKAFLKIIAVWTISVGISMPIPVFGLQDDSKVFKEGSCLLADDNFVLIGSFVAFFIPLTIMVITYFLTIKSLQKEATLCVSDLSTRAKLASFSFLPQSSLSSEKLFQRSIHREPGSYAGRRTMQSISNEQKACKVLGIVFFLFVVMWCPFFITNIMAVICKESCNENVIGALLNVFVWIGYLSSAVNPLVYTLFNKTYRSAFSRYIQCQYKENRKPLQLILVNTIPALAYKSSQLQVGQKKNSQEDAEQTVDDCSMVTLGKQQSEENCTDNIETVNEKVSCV
Counter-ions that a name gives are not always drawn.
Measured parameter: log10(IC50) (log10 of the value in nM)
Use the decimal logarithm of IC50 (nM).

// query Return reported log10(IC50). Input compound: `Cc1ccc2c(c1)c(-c1ccc(F)cc1)c(C)n2C1=CCN(C)CC1`
// result 0.58

// query Return reported log10(IC50). Input compound: `O=C1OCCN1CCN1CCC(n2cc(-c3ccc(F)cc3)c3cc(F)ccc32)CC1`
// result 1.57

// query Return reported log10(IC50). Input compound: `O=C1NCCN1CCN1CCC(n2nc(-c3ccc(F)cc3)c3cc(C(F)(F)F)ccc32)CC1`
// result 2.34

// query Return reported log10(IC50). Input compound: CC(C)N1CCN(CCN2CCC(n3cc(-c4ccc(F)cc4)c4ccccc43)CC2)C1=O [Compound 4l, hydrochloride, hydrate]
// result 0.52

// query Return reported log10(IC50). Input compound: `Cc1ccc2c(c1)c(-c1ccc(F)cc1)cn2C1CCN(CCN2CCNC2=O)CC1`
// result 0.20

// query Return reported log10(IC50). Input compound: `O=C1NCCN1CCN1CCC(n2cc(-c3ccc(F)cc3)c3cc(Cl)ccc32)CC1`
// result 0.76

// query Return reported log10(IC50). Input compound: Cc1ccc2c(c1)c(-c1ccc(F)cc1)cn2C1CCN(CCNC(=S)N(C)C)CC1 [Compound 13a]
// result 0.57

// query Return reported log10(IC50). Input compound: `Cc1ccc2c(c1)c(-c1ccc(F)cc1)c(C)n2C1=CCN(CCN2CCNC2=O)CC1`
// result 0.45
